test.system: Vascular endothelial growth factor receptor 2 (Homo sapiens)
assay.name: Inhibition of VEGFR2 by HTRF assay
measured.endpoint: pIC50
pIC50 is defined as minus the log10 of a concentration measured in mol/L.

Measured pIC50 of Cn1cnc(NCc2ccncc2)c1C(=O)Nc1ccc(Cc2ccccc2)cc1 : 5.25

More entries:
Measured pIC50 of Cn1cnc(NCc2ccncc2)c1C(=O)Nc1ccc(-c2ccccc2)cc1 : 5.42

---

test.system: Vascular endothelial growth factor receptor 2 (Homo sapiens, UniProt P35968)
Sequence (P35968 whole entry): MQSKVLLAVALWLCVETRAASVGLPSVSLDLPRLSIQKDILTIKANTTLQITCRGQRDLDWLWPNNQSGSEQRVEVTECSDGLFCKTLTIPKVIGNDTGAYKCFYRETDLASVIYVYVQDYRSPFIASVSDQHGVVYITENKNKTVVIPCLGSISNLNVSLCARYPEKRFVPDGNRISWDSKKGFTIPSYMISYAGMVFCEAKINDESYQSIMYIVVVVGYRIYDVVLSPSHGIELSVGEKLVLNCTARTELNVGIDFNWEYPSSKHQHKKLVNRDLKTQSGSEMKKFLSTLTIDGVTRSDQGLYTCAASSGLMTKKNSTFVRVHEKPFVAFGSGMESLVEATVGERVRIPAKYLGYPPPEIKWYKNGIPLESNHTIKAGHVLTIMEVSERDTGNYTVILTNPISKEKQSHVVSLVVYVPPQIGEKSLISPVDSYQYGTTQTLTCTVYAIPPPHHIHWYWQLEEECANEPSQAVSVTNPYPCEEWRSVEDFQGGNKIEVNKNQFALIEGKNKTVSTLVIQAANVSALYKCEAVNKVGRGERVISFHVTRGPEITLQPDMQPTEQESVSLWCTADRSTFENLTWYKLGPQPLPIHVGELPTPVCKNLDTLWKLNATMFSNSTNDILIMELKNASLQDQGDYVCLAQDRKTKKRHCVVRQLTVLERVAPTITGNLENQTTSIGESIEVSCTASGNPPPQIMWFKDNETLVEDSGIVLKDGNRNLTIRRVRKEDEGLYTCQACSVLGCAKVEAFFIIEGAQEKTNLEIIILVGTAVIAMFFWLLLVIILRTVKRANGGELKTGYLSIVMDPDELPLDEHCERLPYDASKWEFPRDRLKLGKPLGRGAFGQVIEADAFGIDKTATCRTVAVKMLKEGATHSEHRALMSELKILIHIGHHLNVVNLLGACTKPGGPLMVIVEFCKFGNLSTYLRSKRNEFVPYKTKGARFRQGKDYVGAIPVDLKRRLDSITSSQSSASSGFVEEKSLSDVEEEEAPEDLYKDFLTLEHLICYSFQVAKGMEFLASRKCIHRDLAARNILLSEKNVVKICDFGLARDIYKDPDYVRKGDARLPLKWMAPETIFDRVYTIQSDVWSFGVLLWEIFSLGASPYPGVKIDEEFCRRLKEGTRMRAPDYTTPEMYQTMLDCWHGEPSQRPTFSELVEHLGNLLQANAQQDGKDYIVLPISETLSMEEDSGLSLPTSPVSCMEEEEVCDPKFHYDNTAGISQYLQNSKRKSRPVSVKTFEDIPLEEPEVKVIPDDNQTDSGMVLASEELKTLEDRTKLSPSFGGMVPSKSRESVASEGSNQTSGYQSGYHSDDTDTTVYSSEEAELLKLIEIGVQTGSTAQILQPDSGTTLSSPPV
assay.name: Inhibition of VEGFR2 by cell-based assay
Assay type: functional
So basically: is IC50 under 0.6 µM? Then satisfied. Not under? Then not satisfied.

Request: Decide: IC50 of Cc1cc(NC(=O)c2c(NCc3ccncc3)ncn2C)ccc1C(F)(F)F strictly below 0.6 µM?
Result: satisfied

Request: Decide: IC50 of Cn1cnc(NCc2ccncc2)c1C(=O)Nc1cccc(Cl)c1 strictly below 0.6 µM?
Result: not satisfied

Request: Decide: IC50 of Cn1cnc(NCc2ccncc2)c1C(=O)Nc1ccc(-c2ccccc2)cc1 strictly below 0.6 µM?
Result: not satisfied

Request: Decide: IC50 of Cn1ncc(NCc2ccncc2)c1C(=O)Nc1ccc(Oc2ccccc2)cc1 strictly below 0.6 µM?
Result: not satisfied

Request: Decide: IC50 of Cn1cnc(NCc2ccncc2)c1C(=O)Nc1ccc(Cl)cc1 strictly below 0.6 µM?
Result: not satisfied

Request: Decide: IC50 of Cn1cnc(NCc2ccncc2)c1C(=O)Nc1cccc(C(F)(F)F)c1 strictly below 0.6 µM?
Result: satisfied

Request: Decide: IC50 of Cn1ncc(NCc2ccncc2)c1C(=O)Nc1ccc(C(F)(F)F)c(C(F)(F)F)c1 strictly below 0.6 µM?
Result: satisfied

Request: Decide: IC50 of Cc1noc(NCc2ccncc2)c1C(=O)Nc1ccc(OC(F)(F)F)cc1 strictly below 0.6 µM?
Result: not satisfied

More entries:
Request: Decide: IC50 of Cn1cnc(NCc2ccncc2)c1C(=O)Nc1ccc2c(c1)CN=N2 strictly below 0.6 µM?
Result: not satisfied

Request: Decide: IC50 of Cn1cnc(NCc2ccncc2)c1C(=O)Nc1ccc(C(F)(F)F)c(Cl)c1 strictly below 0.6 µM?
Result: satisfied

---

test.system: Vascular endothelial growth factor receptor 1 (Homo sapiens)
Sequence (P17948 whole entry, looked up): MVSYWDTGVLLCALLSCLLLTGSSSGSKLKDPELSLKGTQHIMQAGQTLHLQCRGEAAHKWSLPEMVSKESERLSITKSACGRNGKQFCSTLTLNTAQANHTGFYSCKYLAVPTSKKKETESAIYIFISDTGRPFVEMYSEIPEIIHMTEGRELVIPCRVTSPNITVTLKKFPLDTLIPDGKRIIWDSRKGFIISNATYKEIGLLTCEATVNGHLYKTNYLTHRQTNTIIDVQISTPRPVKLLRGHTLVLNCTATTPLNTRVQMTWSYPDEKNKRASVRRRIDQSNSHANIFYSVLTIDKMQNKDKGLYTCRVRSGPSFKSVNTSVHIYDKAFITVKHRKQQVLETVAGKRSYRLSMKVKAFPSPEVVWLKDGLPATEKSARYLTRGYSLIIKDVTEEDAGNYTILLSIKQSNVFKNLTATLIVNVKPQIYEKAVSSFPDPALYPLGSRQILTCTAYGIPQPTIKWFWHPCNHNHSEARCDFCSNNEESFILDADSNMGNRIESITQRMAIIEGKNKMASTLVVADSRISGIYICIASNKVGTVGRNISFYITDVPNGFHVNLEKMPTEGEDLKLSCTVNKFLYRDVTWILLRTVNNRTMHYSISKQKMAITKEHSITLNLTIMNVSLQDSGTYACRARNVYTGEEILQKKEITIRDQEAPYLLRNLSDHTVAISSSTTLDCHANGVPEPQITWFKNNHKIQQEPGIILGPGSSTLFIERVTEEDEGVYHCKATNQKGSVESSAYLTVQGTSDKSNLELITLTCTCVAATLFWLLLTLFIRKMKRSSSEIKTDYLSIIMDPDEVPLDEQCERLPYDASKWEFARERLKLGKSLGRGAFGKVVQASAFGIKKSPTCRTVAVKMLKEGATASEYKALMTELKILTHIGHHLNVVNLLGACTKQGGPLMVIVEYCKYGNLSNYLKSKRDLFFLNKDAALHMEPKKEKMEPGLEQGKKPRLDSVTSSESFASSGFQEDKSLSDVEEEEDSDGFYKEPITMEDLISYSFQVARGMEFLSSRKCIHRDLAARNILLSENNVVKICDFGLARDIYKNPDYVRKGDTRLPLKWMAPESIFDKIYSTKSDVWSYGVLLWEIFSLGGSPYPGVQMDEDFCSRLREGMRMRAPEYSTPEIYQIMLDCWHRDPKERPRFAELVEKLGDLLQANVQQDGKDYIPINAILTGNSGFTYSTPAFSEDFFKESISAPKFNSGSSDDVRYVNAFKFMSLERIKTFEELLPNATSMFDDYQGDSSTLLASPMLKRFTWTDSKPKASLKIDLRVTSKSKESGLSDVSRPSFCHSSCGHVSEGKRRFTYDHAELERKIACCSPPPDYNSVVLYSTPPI
assay.name: Inhibition of VEGFR1 by HTRF assay
measured.endpoint: IC50 (nM)
Quick note: give the figure in nM, leave out the unit.

Below are worked cases with known answers.
Measured IC50 of Cc1ccc(NC(=O)c2c(NCc3ccncc3)cnn2C)cc1C(F)(F)F : 930

Measured IC50 of COc1ccc(NC(=O)c2c(NCc3ccncc3)cnn2C)cc1OC : 510

Measured IC50 of Cn1ncc(NCc2ccncc2)c1C(=O)Nc1ccc(C(F)(F)F)c(C(F)(F)F)c1 : 920

Turning now to a further record.
Measured IC50 of Cc1noc(NCc2ccncc2)c1C(=O)Nc1ccc(C(F)(F)F)cc1 : 560

---

test.system: Vascular endothelial growth factor receptor 1 (Homo sapiens)
assay.name: Inhibition of VEGFR1 by HTRF assay
measured.endpoint: IC50 (nM)
Quick note: give the figure in nM, leave out the unit.

Entry Cn1ncc(NCc2ccncc2)c1C(=O)Nc1cc(C(F)(F)F)cc(C(F)(F)F)c1 ; assay system Vascular endothelial growth factor receptor 1 (Homo sapiens); IC50 recorded at 1230

Entry Cn1ncc(NCc2ccncc2)c1C(=O)Nc1ccc(C(F)(F)F)c(Cl)c1 ; assay system Vascular endothelial growth factor receptor 1 (Homo sapiens); IC50 recorded at 440

More entries:
Entry Cc1noc(NCc2ccncc2)c1C(=O)Nc1cnc2ccccc2c1 ; assay system Vascular endothelial growth factor receptor 1 (Homo sapiens); IC50 recorded at 1220

Entry Cn1ncc(NCc2ccncc2)c1C(=O)Nc1ccc(C(C)(C)C)cc1 ; assay system Vascular endothelial growth factor receptor 1 (Homo sapiens); IC50 recorded at 180

Entry Cn1cnc(NCc2ccncc2)c1C(=O)Nc1cnc2ccccc2c1 ; assay system Vascular endothelial growth factor receptor 1 (Homo sapiens); IC50 recorded at 350

Entry Cn1cnc(NCc2ccncc2)c1C(=O)Nc1cc(C(F)(F)F)cc(C(F)(F)F)c1 ; assay system Vascular endothelial growth factor receptor 1 (Homo sapiens); IC50 recorded at 1060

---

assay.name: Intrinsic permeability across Caco-2 cell monolayers
measurement.parameters: human
measured.endpoint: Papp (×10⁻⁶ cm/s)
Quick note: give the figure in ×10⁻⁶ cm/s, leave out the unit.

Measured Papp of Cn1cnc(NCc2ccncc2)c1C(=O)Nc1ccc(Cl)cc1 : 0.95

Measured Papp of Cn1ncc([N+](=O)[O-])c1C(=O)O : 5.4

Measured Papp of Cn1cnc(NCc2ccncc2)c1C(=O)Nc1ccc(Cl)c(C(F)(F)F)c1 : 6.15

Measured Papp of Cc1cc(NC(=O)c2c(NCc3ccncc3)cnn2C)ccc1C(F)(F)F : 5.52

Measured Papp of Cc1ccc(NC(=O)c2c(NCc3ccncc3)ncn2C)cc1C(F)(F)F : 5.93

Measured Papp of Cn1cnc(NCc2ccncc2)c1C(=O)Nc1ccc(C(F)(F)F)c(Cl)c1 : 3.6

---

test.system: UniProtKB P17948
assay.name: Inhibition of VEGFR1 by HTRF assay
This listing pairs compounds with measured IC50.
Quick note: give the figure in nM, leave out the unit.

Below are worked cases with known answers.
Measured IC50 of COc1ccc(NC(=O)c2c(NCc3ccncc3)ncn2C)cc1OC : 350

Measured IC50 of Cn1cnc(NCc2ccncc2)c1C(=O)Nc1ccc(C(F)(F)F)cc1 : 6000

Measured IC50 of Cn1cnc(NCc2ccncc2)c1C(=O)Nc1ccc(C(F)(F)F)c(Cl)c1 : 350

Measured IC50 of Cn1ncc(NCc2ccncc2)c1C(=O)Nc1cccc(C(F)(F)F)c1 : 1060

Measured IC50 of Cc1ccc(NC(=O)c2c(NCc3ccncc3)ncn2C)cc1C(F)(F)F : 610

Measured IC50 of Cn1cnc(NCc2ccncc2)c1C(=O)NCc1ccc2c(c1)OCO2 : 1120

Measured IC50 of Cn1cnc(NCc2ccncc2)c1C(=O)Nc1ccc(C(C)(C)C)cc1 : 110

Measured IC50 of Cn1cnc(NCc2ccncc2)c1C(=O)Nc1cccc(OC(F)(F)F)c1 : 1110

More entries:
Measured IC50 of Cn1cnc(NCc2ccncc2)c1C(=O)Nc1ccc(C(F)(F)F)c(C(F)(F)F)c1 : 690

Measured IC50 of Cc1cc(NC(=O)c2c(NCc3ccncc3)cnn2C)ccc1C(F)(F)F : 560

Measured IC50 of Cn1ncc(NCc2ccncc2)c1C(=O)Nc1cnc2ccccc2c1 : 520

Measured IC50 of Cn1ncc(NCc2ccncc2)c1C(=O)Nc1ccc(OC(F)(F)F)cc1 : 1870

Measured IC50 of Cc1noc(NCc2ccncc2)c1C(=O)Nc1cccc(C(F)(F)F)c1 : 1690

Measured IC50 of Cn1cnc(NCc2ccncc2)c1C(=O)Nc1cccc(C(F)(F)F)c1 : 790

Measured IC50 of Cn1cnc(NCc2ccncc2)c1C(=O)Nc1ccc(Cl)c(Cl)c1 : 550

---

test.system: Vascular endothelial growth factor receptor 2 (Homo sapiens, UniProt P35968)
assay.name: Inhibition of VEGFR2 by cell-based assay
Format: functional
This listing pairs compounds with measured IC50.
Quick note: give the figure in nM, leave out the unit.

Below are worked cases with known answers.
Measured IC50 of Cc1noc(NCc2ccncc2)c1C(=O)Nc1ccc(Cl)c(Cl)c1 : 930

Measured IC50 of Cn1cnc(NCc2ccncc2)c1C(=O)Nc1ccc(C(C)(C)C)cc1 : 64

Measured IC50 of Cc1noc(NCc2ccncc2)c1C(=O)Nc1ccc(C(C)(C)C)cc1 : 210

More entries:
Measured IC50 of Cn1cnc(NCc2ccncc2)c1C(=O)Nc1cc(C(F)(F)F)cc(C(F)(F)F)c1 : 150

Measured IC50 of Cn1cnc(NCc2ccncc2)c1C(=O)Nc1ccc(Cl)c(C(F)(F)F)c1 : 170

Measured IC50 of Cc1noc(NCc2ccncc2)c1C(=O)Nc1ccc(C(F)(F)F)cc1 : 180

---

test.system: UniProt:P35968
assay.name: Inhibition of VEGFR2 by HTRF assay
So basically: is IC50 under 0.3 µM? Then Fulfilled. Not under? Then Not fulfilled.

Request: Decide: IC50 of Cn1cnc(NCc2ccncc2)c1C(=O)NCc1ccc2c(c1)OCO2 strictly below 0.3 µM?
Result: Not fulfilled

Request: Decide: IC50 of Cn1cnc(NCc2ccncc2)c1C(=O)Nc1ccc2c(c1)CN=N2 strictly below 0.3 µM?
Result: Not fulfilled

Request: Decide: IC50 of Cn1ncc(NCc2ccncc2)c1C(=O)Nc1ccc(Cl)c(Cl)c1 strictly below 0.3 µM?
Result: Fulfilled

More entries:
Request: Decide: IC50 of Cn1cnc(NCc2ccncc2)c1C(=O)Nc1ccc2cn[nH]c2c1 strictly below 0.3 µM?
Result: Not fulfilled

Request: Decide: IC50 of Cn1ncc(NCc2cccnc2)c1C(=O)Nc1ccc(C(F)(F)F)cc1 strictly below 0.3 µM?
Result: Not fulfilled

Request: Decide: IC50 of Cn1ncc(NCc2ccncc2)c1C(=O)Nc1cccc(OC(F)(F)F)c1 strictly below 0.3 µM?
Result: Not fulfilled

Request: Decide: IC50 of Cn1cnc(NCc2ccncc2)c1C(=O)Nc1cc(C(F)(F)F)cc(C(F)(F)F)c1 strictly below 0.3 µM?
Result: Not fulfilled

Request: Decide: IC50 of Cn1cnc(NCc2ccncc2)c1C(=O)Nc1ccc(C(C)(C)C)cc1 strictly below 0.3 µM?
Result: Fulfilled

Request: Decide: IC50 of Cn1ncc(NCc2ccncc2)c1C(=O)Nc1ccc(Oc2ccccc2)cc1 strictly below 0.3 µM?
Result: Not fulfilled

Request: Decide: IC50 of Cn1cnc(NCc2cccnc2)c1C(=O)Nc1cccc(C(F)(F)F)c1 strictly below 0.3 µM?
Result: Not fulfilled

Request: Decide: IC50 of Cc1noc(NCc2ccncc2)c1C(=O)Nc1ccc(Cl)c(Cl)c1 strictly below 0.3 µM?
Result: Not fulfilled

Request: Decide: IC50 of Cc1noc(NCc2ccncc2)c1C(=O)Nc1ccc(Cl)cc1 strictly below 0.3 µM?
Result: Not fulfilled

Request: Decide: IC50 of COc1ccc(NC(=O)c2c(NCc3ccncc3)cnn2C)cc1OC strictly below 0.3 µM?
Result: Not fulfilled

Request: Decide: IC50 of Cc1cc(NC(=O)c2c(NCc3ccncc3)cnn2C)ccc1C(F)(F)F strictly below 0.3 µM?
Result: Not fulfilled

Request: Decide: IC50 of Cc1ccc(NC(=O)c2c(NCc3ccncc3)cnn2C)cc1C(F)(F)F strictly below 0.3 µM?
Result: Not fulfilled

Request: Decide: IC50 of Cn1ncc(NCc2ccncc2)c1C(=O)Nc1ccc(OC(F)(F)F)cc1 strictly below 0.3 µM?
Result: Not fulfilled
